- target under test: δ-opioid receptor (DOR), Human-ORPD1 (human, UniProt P41143 1-372)
- Sequence (P41143 whole entry, stated change not applied): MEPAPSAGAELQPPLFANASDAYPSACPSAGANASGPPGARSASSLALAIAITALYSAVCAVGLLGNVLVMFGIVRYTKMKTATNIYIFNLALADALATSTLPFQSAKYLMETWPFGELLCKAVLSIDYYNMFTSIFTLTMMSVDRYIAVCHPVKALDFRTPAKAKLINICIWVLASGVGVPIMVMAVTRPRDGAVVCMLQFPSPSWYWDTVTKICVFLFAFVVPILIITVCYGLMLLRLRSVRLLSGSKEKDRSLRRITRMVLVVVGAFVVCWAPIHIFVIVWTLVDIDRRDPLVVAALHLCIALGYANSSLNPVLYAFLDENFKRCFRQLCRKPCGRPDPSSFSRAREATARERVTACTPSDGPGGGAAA
- experiment: cell-based or functional assay
Numbered stars: 1 amine (or outer) side, 2 acyl side, 3 side chain; on linkers, the order of the positions; unused ones are H or OH. Square brackets hold non-standard residues; d marks the D form. Dip = N[C@H](C(=O)O)C(c1ccccc1)c1ccccc1; Phe(4-F) = N[C@@H](Cc1ccc(F)cc1)C(=O)O; Dmt = Cc1cc(O)cc(C)c1C[C@H](N)C(=O)O; NMeR = CN[C@@H](CCCNC(=N)N)C(=O)O; dNMeF = CN[C@H](Cc1ccccc1)C(=O)O; NMeβAla = CN(CCC(=O)[*:2])[*:1]; β3hF = N[C@H](CC(=O)O)Cc1ccccc1; dNMeA = CN[C@H](C)C(=O)O; Sar = CNCC(=O)O
measured attribute: DOR EC50

Below, each entry is followed by its recorded DOR EC50 result.
Task: Item under review: H-[Dmt][dR]F[dNMeF]-NH2 (SMILES Cc1cc(O)cc(C)c1C[C@H](N)C(=O)N[C@H](CCCNC(=N)N)C(=O)N[C@@H](Cc1ccccc1)C(=O)N(C)[C@H](Cc1ccccc1)C(N)=O) [H-DMT-r-F-(D)N(Me)Phe-NH2] . Reported DOR EC50?
Result: ≤ 0.05 µM

Task: Item under review: H-[Dmt][dR][Dip][Sar]-NH2 (SMILES Cc1cc(O)cc(C)c1C[C@H](N)C(=O)N[C@H](CCCNC(=N)N)C(=O)N[C@H](C(=O)N(C)CC(N)=O)C(c1ccccc1)c1ccccc1) [H-DMT-r-DPA-Sar-NH2 (Seq. ID 32)] . Reported DOR EC50?
Result: > 0.2 µM

Task: Item under review: H-[Dmt][NMeR]G[β3hF][Sar]-NH2 (SMILES Cc1cc(O)cc(C)c1C[C@H](N)C(=O)N(C)[C@@H](CCCNC(=N)N)C(=O)NCC(=O)N[C@H](CC(=O)N(C)CC(N)=O)Cc1ccccc1) [H-DMT-N(Me)Arg-G-bhF-Sar-NH2] . Reported DOR EC50?
Result: ≤ 0.2 µM

Task: Item under review: H-[Dmt][dR]GW-NH2 (SMILES Cc1cc(O)cc(C)c1C[C@H](N)C(=O)N[C@H](CCCNC(=N)N)C(=O)NCC(=O)N[C@@H](Cc1c[nH]c2ccccc12)C(N)=O) [H-DMT-r-G-W-NH2] . Reported DOR EC50?
Result: ≤ 0.05 µM

Task: Item under review: H-[Dmt][dR]X[NMeβAla]-OH (not fully specified (residue 3); printed as H-DMT-r-Homo-F-N(Me)bAla-OH) [H-DMT-r-Homo-F-N(Me)bAla-OH] . Reported DOR EC50?
Result: ≤ 0.001 µM

---
Task: Item under review: H-[Dmt][dR]HK-NH2 (SMILES Cc1cc(O)cc(C)c1C[C@H](N)C(=O)N[C@H](CCCNC(=N)N)C(=O)N[C@@H](Cc1c[nH]cn1)C(=O)N[C@@H](CCCCN)C(N)=O) [H-DMT-r-H-K-NH2] . Reported DOR EC50?
Result: > 0.2 µM

Task: Item under review: H-[Dmt][dNMeA]F[Sar]-NH2 (SMILES Cc1cc(O)cc(C)c1C[C@H](N)C(=O)N(C)[C@H](C)C(=O)N[C@@H](Cc1ccccc1)C(=O)N(C)CC(N)=O) [H-DMT-N(Me)-a-F-Sar-NH2] . Reported DOR EC50?
Result: ≤ 0.01 µM

Task: Item under review: H-[Dmt][dR]F[Phe(4-F)]-NH2 [H-DMT-r-F-Phe(4-F)-NH2] . Reported DOR EC50?
Result: ≤ 0.05 µM
